Data origin: patent US20230312504A1

# testDetails: Microsome metabolic stability, rat
# Assay type: in vitro ADME
# assayContext: rat liver microsomes, 1 μM compound, 0.5 mg/mL; read-out: MMS CLint(liver)-R
readoutType: CLint scaled at 1 μM

Problem: Please look at this molecule and report its CLint scaled at 1 μM: CCN1CCN(Cc2cc(F)c(NC(=O)Cc3ccc(-c4cnc5cc(OC)c(OC)cc5c4)nc3)cc2C(F)(F)F)CC1
Result: < 17.3 mL/min/kg

----------
# targetDesc: UniProtKB P33261
# Sequence (P33261 whole entry): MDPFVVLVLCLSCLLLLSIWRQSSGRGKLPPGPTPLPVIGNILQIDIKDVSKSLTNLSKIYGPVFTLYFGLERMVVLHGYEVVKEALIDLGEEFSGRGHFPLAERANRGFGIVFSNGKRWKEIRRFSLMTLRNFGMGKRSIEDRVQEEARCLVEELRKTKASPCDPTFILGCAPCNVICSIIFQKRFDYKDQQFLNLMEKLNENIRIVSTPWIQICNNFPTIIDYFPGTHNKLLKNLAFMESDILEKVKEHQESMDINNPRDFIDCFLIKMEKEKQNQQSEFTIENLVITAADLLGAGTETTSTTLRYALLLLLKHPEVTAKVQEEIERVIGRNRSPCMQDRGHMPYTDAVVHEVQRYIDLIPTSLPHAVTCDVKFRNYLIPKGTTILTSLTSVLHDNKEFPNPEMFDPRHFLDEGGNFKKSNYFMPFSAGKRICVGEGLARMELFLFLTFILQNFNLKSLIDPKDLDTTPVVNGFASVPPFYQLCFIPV
readoutType: pIC50
// field semantics: pIC50 = negative decimal log of concentration (mol/L)

Problem: Please look at this molecule and report its pIC50: CCN1CCN(Cc2cc(F)c(NC(=O)Cc3ccc(-c4cnc5cc(OC)c(OC)cc5c4)nc3)cc2C(F)(F)F)CC1 [Compound 1]
Result: 4.77

----------
# testDetails: Microsome metabolic stability, cynomolgus monkey
# Type: in vitro ADME
# assayContext: cynomolgus monkey liver microsomes, 1 μM compound, 0.5 mg/mL; read-out: MMS CLint(liver)-C
readoutType: CLint scaled at 1 μM (mL/min/kg)
Respond with the bare value in mL/min/kg.

Problem: Please look at this molecule and report its CLint scaled at 1 μM: CCN1CCN(Cc2cc(F)c(NC(=O)Cc3ccc(-c4cnc5cc(OC)c(OC)cc5c4)nc3)cc2C(F)(F)F)CC1
Result: 127

----------
# targetDesc: CYP2C9 (Homo sapiens (Human), UniProt P11712)
# Sequence (P11712 whole entry): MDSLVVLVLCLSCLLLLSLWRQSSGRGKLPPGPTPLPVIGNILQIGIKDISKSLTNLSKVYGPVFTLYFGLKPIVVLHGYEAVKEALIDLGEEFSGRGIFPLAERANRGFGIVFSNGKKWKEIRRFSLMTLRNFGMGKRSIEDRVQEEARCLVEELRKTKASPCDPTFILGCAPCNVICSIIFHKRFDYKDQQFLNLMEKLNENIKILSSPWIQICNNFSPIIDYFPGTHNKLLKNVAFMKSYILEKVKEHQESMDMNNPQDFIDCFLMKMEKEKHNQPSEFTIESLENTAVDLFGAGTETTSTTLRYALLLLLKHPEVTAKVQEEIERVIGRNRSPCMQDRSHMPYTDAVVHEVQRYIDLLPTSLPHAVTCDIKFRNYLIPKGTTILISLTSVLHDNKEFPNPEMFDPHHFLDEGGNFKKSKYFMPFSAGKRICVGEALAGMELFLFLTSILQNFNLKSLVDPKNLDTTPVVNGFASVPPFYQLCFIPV
readoutType: IC50 (µM)
Respond with the bare value in µM.

Problem: Please look at this molecule and report its IC50: CCN1CCN(Cc2cc(F)c(NC(=O)Cc3ccc(-c4cnc5cc(OC)c(OC)cc5c4)nc3)cc2C(F)(F)F)CC1
Result: 12.5

----------
# testDetails: Pharmacokinetics study of mice
# Type: in vivo
# assayContext: mouse, 0.5 mg/kg; 0.5 mpk intravenous injection, male CD-1 mice, plasma
readoutType: AUC(0-inf) (µM·h)
Respond with the bare value in µM·h.

Problem: Please look at this molecule and report its AUC(0-inf): CCN1CCN(Cc2cc(F)c(NC(=O)Cc3ccc(-c4cnc5cc(OC)c(OC)cc5c4)nc3)cc2C(F)(F)F)CC1
Result: 5.19

----------
# testDetails: Pharmacokinetics study of mice
# Type: in vivo
# assayContext: mouse, 0.5 mg/kg; 0.5 mpk intravenous injection, male CD-1 mice, plasma
readoutType: clearance

Problem: Please look at this molecule and report its clearance: CCN1CCN(Cc2cc(F)c(NC(=O)Cc3ccc(-c4cnc5cc(OC)c(OC)cc5c4)nc3)cc2C(F)(F)F)CC1
Result: 2.68 mL/min/kg

----------
# testDetails: Microsome metabolic stability, Beagle
# Assay type: in vitro ADME
# assayContext: dog; Beagle liver microsomes, 1 μM compound, 0.5 mg/mL; read-out: MMS CLint(liver)-D
readoutType: CLint scaled at 1 μM (mL/min/kg)
Respond with the bare value in mL/min/kg.

Problem: Please look at this compound and report its CLint scaled at 1 μM: CCN1CCN(Cc2cc(F)c(NC(=O)Cc3ccc(-c4cnc5cc(OC)c(OC)cc5c4)nc3)cc2C(F)(F)F)CC1
Result: 22.5

----------
# testDetails: Pharmacokinetics study of mice
# Type: in vivo
# assayContext: mouse, 2.5 mg/kg; 2.5 mpk oral administration, male CD-1 mice, plasma
readoutType: AUC(0-inf) (µM·h)
Respond with the bare value in µM·h.

Problem: Please look at this compound and report its AUC(0-inf): CCN1CCN(Cc2cc(F)c(NC(=O)Cc3ccc(-c4cnc5cc(OC)c(OC)cc5c4)nc3)cc2C(F)(F)F)CC1 [Compound 1]
Result: 12.5
